Origin of measurements: patent US20230272056A1

target.system: T1, human LAP-TGFB1 Fc fusion (human)
T1 construct: also called human LAP-TGFβ1-Fc; human LAP-TGFβ-Fc isoform 1
T1 sequence (chain, as listed by the source limits assumed): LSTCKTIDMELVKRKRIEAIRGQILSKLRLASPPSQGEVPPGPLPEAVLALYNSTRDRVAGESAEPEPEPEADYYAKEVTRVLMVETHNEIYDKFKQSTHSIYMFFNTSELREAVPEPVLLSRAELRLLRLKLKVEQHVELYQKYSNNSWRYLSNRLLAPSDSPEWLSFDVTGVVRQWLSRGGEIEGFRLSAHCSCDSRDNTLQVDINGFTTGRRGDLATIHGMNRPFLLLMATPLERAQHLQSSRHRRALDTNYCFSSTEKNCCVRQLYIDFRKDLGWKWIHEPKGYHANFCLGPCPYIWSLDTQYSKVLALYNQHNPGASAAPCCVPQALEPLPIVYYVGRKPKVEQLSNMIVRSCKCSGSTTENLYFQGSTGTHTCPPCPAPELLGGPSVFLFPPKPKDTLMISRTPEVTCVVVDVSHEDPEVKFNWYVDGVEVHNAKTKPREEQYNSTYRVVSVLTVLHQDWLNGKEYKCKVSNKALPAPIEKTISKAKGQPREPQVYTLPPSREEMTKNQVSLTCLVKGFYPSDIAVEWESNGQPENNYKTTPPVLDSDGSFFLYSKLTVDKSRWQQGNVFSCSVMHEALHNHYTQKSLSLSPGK
protocol: BLI off-rate screen
quantity.name: koff (s⁻¹)
Numbers only, in s⁻¹.

koff reading for VH S31R (25BIT) (Fab, V domains shown, Light chain: parental 20E6 LC, implied) VH: EVQLVQSGAEVKKPGASVKVSCKASGYTFTRYWMHWVRQAPGQGLEWMGRIDPQSGGIKYAQKFQGRATLTVDTSTSTAYMELSRLRSDDTAVYYCARWDYGGYFDVWGQGTLVTVSS VL: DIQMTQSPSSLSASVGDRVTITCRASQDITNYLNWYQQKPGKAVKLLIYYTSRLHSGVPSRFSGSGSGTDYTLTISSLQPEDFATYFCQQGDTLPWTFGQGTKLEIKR : 0.0437
